So I've got a bunch of molecules here, and I need their Euclidean distance values.
- Test system: 786-O
- Experiment Summary: Euclidean distance of Cell Painting phenotypic profile (signed KS, 77 features) to DMSO centroid (dimensionless distance); higher = stronger phenotypic change vs DMSO (phenoactivity)
- Assay Setup: 48 h; 5 or 10 uM (library dependent)
Counter-ions that a name gives are not always drawn.
Give bare numbers.

Some entries whose results are on file:
Looking for the measured Euclidean distance of `CCCCCc1cc(O)cc(O)c1` , can you help? 1.12

Looking for the measured Euclidean distance of `Cc1cc(O)ccc1Cl` , can you help? 0.894

Looking for the measured Euclidean distance of NCC1(CC(=O)O)CCCCC1 [Gabapentin HCl] , can you help? 0.807

Looking for the measured Euclidean distance of `C/C=C(\C)C(=O)N[C@@H](c1ccccc1)[C@@H](O)C(=O)O[C@H]1C[C@@]2(O)[C@@H](OC(=O)c3ccccc3)[C@@H]3[C@]4(OC(C)=O)CO[C@@H]4C[C@H](O)[C@@]3(C)C(=O)[C@H](OC(C)=O)C(=C1C)C2(C)C` , can you help? 2.74

Looking for the measured Euclidean distance of `Cn1c(CCCC(=O)O)nc2cc(N(CCCl)CCCl)ccc21` , can you help? 0.99

I have 4 molecules here; please give me Euclidean distance for each one.
1. CC(C)(C)[C@]1(O)CC2OC(=O)CC23C(=O)OC2OC(=O)[C@H](O)C231 (some centres not stated) [Bilobalide]
2. c1ccc2c(c1)Sc1ccccc1N2CC1CN2CCC1CC2 (configuration not stated)
3. CCCCCCCCC(=O)NCc1ccc(O)c(OC)c1 [Nonivamide]
4. Fc1cc(F)c2c(c1)[C@H]1C=CC[C@H]1C(c1cccnc1)N2 (some centres not stated) [Golgicide A]

[1, 2.14, 1.37, 0.733]

I have 3 molecules here; please give me Euclidean distance for each one.
1. CN1C[C@H](C(=O)N[C@]2(C)O[C@@]3(O)[C@@H]4CCCN4C(=O)[C@H](Cc4ccccc4)N3C2=O)C[C@@H]2c3cccc4[nH]cc(c34)C[C@H]21 [Dihydroergotamine Mesylate]
2. CNC1CC(N)C(O)C(OC2OC(CO)C(O)C3OC4(OC(C(N)CO)C(O)C(O)C4O)OC23)C1O (configuration not stated)
3. O=[N+]([O-])/C=C/c1ccc2c(c1)OCO2

1: 1.1; 2: 1.63; 3: 4.42

I have 5 molecules here; please give me Euclidean distance for each one.
1. CCCCCCC(=O)O[C@H]1CC[C@H]2[C@@H]3CCC4=CC(=O)CC[C@]4(C)[C@H]3CC[C@]12C [Testosterone Enanthate]
2. CC(=O)O[C@H]1CC[C@H]2[C@@H]3CCC4=CC(=O)CCC4=C3C=C[C@]12C [Trenbolone acetate]
3. O=C(NCC1CCOCC1)c1cnc(Nc2ccc(Cl)cc2Cl)nc1C(F)(F)F
4. C[C@@H]1O[C@@H](O[C@H]2C[C@@H](O)[C@]3(CO)[C@H]4[C@H](O)C[C@]5(C)[C@@H](C6=CC(=O)OC6)CC[C@]5(O)[C@@H]4CC[C@]3(O)C2)[C@H](O)[C@H](O)[C@H]1O
5. CC[C@@H](C(N)=O)N1CCCC1=O

1. 0.918
2. 0.864
3. 0.865
4. 6.72
5. 1.07

###

So I've got a bunch of compounds here, and I need their Euclidean distance values.
- Tested on: OVCAR4
- Experiment Summary: Euclidean distance of Cell Painting phenotypic profile (signed KS, 77 features) to DMSO centroid (dimensionless distance); higher = stronger phenotypic change vs DMSO (phenoactivity)
- Assay Setup: 48 h; 5 or 10 uM (library dependent)
Answers are plain numbers.

Quick check: Euclidean distance on OVCAR4, item `C[C@]12CC[C@@H](O)C[C@@H]1CC[C@@H]1[C@@H]2CC[C@]2(C)C(=O)CC[C@@H]12` ? 1.07

Quick check: Euclidean distance on OVCAR4, item O=c1[nH]c2ccccc2n1C1CCN(CCCC(c2ccc(F)cc2)c2ccc(F)cc2)CC1 [Pimozide] ? 0.955

Quick check: Euclidean distance on OVCAR4, item `CC[C@H](C)[C@@H]([C@@H](CC(=O)N1CCC[C@H]1[C@H](OC)[C@@H](C)C(=O)N[C@H](C)[C@@H](O)c1ccccc1)OC)N(C)C(=O)[C@@H](NC(=O)[C@@H](NC)C(C)C)C(C)C` ? 3.16

Quick check: Euclidean distance on OVCAR4, item `C=CC[C@]1(O)CC[C@H]2[C@@H]3CCC4=CC(=O)CCC4=C3C=C[C@@]21C` ? 1.02

Quick check: Euclidean distance on OVCAR4, item O=C(O[C@H]1C[N+]2(CCCOc3ccccc3)CCC1CC2)C(O)(c1cccs1)c1cccs1 [Aclidinium Bromide] ? 1.23

I have 2 compounds here; please give me Euclidean distance for each one.
1. S=C=NCc1ccccc1 [Benzyl isothiocyanate]
2. Fc1cc(F)c2c(c1)[C@H]1C=CC[C@H]1C(c1cccnc1)N2 (some centres not stated) [Golgicide A]

1.82
0.985

I have 3 compounds here; please give me Euclidean distance for each one.
1. C[C@](O)(COc1ccc(C#N)cc1)C(=O)Nc1ccc(C#N)c(C(F)(F)F)c1
2. C=C(C)[C@@H]1[C@H]2OC(=O)[C@@H]1[C@]1(O)C[C@H]3O[C@]34C(=O)O[C@H]2[C@]14C
3. CC(O)(CS(=O)(=O)c1ccc(F)cc1)C(=O)Nc1ccc(C#N)c(C(F)(F)F)c1 (configuration not stated) [Bicalutamide]

1. 1.74
2. 1.26
3. 1.65
